Exercise: for every item that follows, state its recorded luciferase normalized to β-galactosidase, no compound.
# Assayed System: androgen receptor (Homo sapiens)
# Sequence (P10275 whole entry, species assumed): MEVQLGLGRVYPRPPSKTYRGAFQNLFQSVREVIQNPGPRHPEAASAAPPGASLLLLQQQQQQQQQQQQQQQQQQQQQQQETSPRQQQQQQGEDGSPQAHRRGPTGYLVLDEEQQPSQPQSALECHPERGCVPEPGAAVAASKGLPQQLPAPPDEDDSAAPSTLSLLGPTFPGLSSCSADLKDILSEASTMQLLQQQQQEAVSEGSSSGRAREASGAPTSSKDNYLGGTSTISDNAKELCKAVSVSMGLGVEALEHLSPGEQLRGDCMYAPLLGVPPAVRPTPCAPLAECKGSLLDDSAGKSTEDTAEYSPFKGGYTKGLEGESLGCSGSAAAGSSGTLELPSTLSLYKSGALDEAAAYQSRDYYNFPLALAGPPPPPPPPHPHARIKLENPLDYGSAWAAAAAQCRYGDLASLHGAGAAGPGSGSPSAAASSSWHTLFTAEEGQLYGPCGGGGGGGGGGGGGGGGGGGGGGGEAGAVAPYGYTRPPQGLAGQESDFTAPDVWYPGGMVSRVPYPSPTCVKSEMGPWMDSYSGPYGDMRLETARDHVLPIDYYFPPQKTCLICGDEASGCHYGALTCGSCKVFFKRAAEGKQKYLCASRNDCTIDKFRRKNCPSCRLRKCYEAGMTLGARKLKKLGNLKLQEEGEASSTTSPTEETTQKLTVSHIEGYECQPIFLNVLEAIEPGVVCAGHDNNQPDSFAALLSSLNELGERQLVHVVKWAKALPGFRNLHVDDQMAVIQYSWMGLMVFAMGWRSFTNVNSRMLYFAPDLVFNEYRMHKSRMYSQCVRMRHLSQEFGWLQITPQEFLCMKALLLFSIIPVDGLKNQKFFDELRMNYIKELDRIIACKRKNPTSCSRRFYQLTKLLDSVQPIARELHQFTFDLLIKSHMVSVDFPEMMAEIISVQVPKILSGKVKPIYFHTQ
# Assay type: cell-based
# Set-up: expressed in transfected cells
# Reported Conditions: mammalian two-hybrid, Huh-7 cells, no compound
Reply briefly: the number, and no unit.

Asked: Quick one: luciferase normalized to β-galactosidase, no compound for EFRSSVFEQMYLCTGGSLDLQPS* [B5G11] ?
Given back: 0.05028

Asked: What value of luciferase normalized to β-galactosidase, no compound has been reported for the following substance? HPTHSSRLWELLMEATPTM [D30]
Given back: 0.03854

Asked: Fill in: luciferase normalized to β-galactosidase, no compound of EFQQCMCAEVKSWLGGSLDLQPS* [B8E9] is ___
Given back: 0.2091

Asked: # luciferase normalized to β-galactosidase, no compound lookup, item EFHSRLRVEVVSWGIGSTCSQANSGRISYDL* [B8H3]
Given back: 0.1316
